Biological target: T1, human TL1A (Fitzgerald #30R-AT070) (human, UniProt O95150 72-251, limits assumed)
T1 construct: Coated on the ELISA plate at 1 ug/mL; also called TNFSF15
T1 sequence (looked up): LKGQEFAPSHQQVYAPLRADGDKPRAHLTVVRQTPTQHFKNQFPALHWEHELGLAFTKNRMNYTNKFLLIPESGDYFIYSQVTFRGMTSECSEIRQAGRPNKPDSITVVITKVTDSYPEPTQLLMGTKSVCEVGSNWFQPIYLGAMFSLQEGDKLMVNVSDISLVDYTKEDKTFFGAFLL
Assay: ELISA titration, coated human TL1A, culture supernatant
Property Name: pKd
Just so you know, pKd here is -log10 of the concentration in molar units; reply with that number alone.

Recorded results for 9 binders are shown here.
>>> reading("A35 (antibody, human IgG1, V domains shown, human IgG1/kappa (pFuse vectors), culture supernatant) VH: QVQLVQSGAEVKKPGASVKVSCKASGFDIQDTYMHWVKQAPGQGLEWIGRIDPASGHTKYDPKFQVRATITTDTSTSTAYLELSSLRSEDTAVYYCARSGGLPDVWGQGTTVTVSS VL: EIVLTQSPGTLSASPGERATMSCRASSSVSYMYWYQQKPGQAPRPWIYATSNLASGVPDRFSGSGSGTDYTLTISRVEPEDFAVYYCQQWSGNPRTFGGGTKLEIK")
10.14
>>> reading("A146 (antibody, human IgG1, V domains shown, human IgG1/kappa (pFuse vectors), culture supernatant) VH: QVQLVQSGAEVKKPGASVKVSCKASGFDIQDTYMHWVKQAPGQGLEWMGRIEPASGHIKYDPKFQGRVTMTRDTSTSTVYMELSSLRSEDTAVYYCARSGGLPDWWGQGTTVTVSS VL: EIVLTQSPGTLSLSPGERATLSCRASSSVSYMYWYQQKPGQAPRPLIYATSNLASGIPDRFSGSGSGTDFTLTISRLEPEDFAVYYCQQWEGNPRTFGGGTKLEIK")
10.19
>>> reading("A32 (antibody, V domains shown) VH: DVQLVQSGAEVKKPGASVKVSCKASGFDIQDTYMHWVRQAPGQGLEWMGRIEPASGHIKYDPKFQGRVTMTRDTSTSTVYMELSSLRSEDTAVYYCARSGGLPDWWGQGTTVTVSS VL: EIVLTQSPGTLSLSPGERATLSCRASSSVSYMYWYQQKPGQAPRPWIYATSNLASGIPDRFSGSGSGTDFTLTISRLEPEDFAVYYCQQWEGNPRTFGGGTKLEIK")
9.95
>>> reading("A49 (antibody, human IgG1, V domains shown, human IgG1/kappa (pFuse vectors), culture supernatant) VH: QVQLVQSGAEVKKPGASVKVSCKASGFDIQDTYMHWVKQRPGQGLEWIGRIDPASGHTKYDPKFQVRATITTDTSTSTAYLELSSLRSEDTAVYYCARSGGLPDVWGQGTTVTVSS VL: EIVLTQSPGTLSASPGERATMSCRASSSVSYMYWYQQKPGQAPRLLIYATSNLASGVPDRFSGSGSGTDYTLTISRVEPEDFAVYYCQQWSGNPRTFGGGTKLEIK")
10.04
>>> reading("A71 (antibody, human IgG1, V domains shown, human IgG1/kappa (pFuse vectors), culture supernatant) VH: QVQLVQSGAEVKKPGASVKVSCKASGFDIQDTYMHWVRQAPGQGLEWMGRIEPASGHIKYDPKFQGRVTITTDTSTSTVYMELSSLRSEDTAVYYCARSGGLPDWWGQGTTVTVSS VL: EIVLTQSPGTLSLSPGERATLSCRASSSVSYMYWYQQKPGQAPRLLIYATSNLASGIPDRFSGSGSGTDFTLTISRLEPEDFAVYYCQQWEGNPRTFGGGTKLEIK")
9.82
>>> reading("A67 (antibody, human IgG1, V domains shown, human IgG1/kappa (pFuse vectors), culture supernatant) VH: QVQLVQSGAEVKKPGASVKVSCKASGFDIQDTYMHWVRQAPGQGLEWMGRIEPASGHIKYDPKFQVRATMTRDTSTSTVYMELSSLRSEDTAVYYCARSGGLPDWWGQGTTVTVSS VL: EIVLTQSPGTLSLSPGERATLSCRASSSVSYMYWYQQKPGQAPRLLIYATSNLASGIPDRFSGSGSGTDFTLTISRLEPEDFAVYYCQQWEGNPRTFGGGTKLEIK")
10.05
>>> reading("A121 (antibody, human IgG1, V domains shown, human IgG1/kappa (pFuse vectors), culture supernatant) VH: QVQLVQSGAEVKKPGASVKVSCKASGFDIQDTYMHWVRQRPGQGLEWMGRIDPASGHTKYDPKFQVRATITTDTSTSTAYLELSSLRSEDTAVYYCARSGGLPDVWGQGTTVTVSS VL: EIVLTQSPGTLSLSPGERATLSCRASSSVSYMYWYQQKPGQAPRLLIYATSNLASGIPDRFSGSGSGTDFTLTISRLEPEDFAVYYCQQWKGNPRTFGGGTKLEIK")
9.97
>>> reading("A66 (antibody, human IgG1, V domains shown, human IgG1/kappa (pFuse vectors), culture supernatant) VH: QVQLVQSGAEVKKPGASVKVSCKASGFDIQDTYMHWVRQAPGQGLEWMGRIEPASGHIKYDPKFQGRVTITRDTSTSTVYMELSSLRSEDTAVYYCARSGGLPDWWGQGTTVTVSS VL: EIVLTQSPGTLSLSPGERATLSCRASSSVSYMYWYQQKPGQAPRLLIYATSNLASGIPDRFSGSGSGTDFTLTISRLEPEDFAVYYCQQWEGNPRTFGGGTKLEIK")
9.82
>>> reading("A61 (antibody, human IgG1, V domains shown, human IgG1/kappa (pFuse vectors), culture supernatant) VH: QVQLVQSGAEVKKPGASVKVSCKASGFDIQDTYMHWVRQAPGQGLEWIGRIEPASGHIKYDPKFQGRVTMTRDTSTSTVYMELSSLRSEDTAVYYCARSGGLPDWWGQGTTVTVSS VL: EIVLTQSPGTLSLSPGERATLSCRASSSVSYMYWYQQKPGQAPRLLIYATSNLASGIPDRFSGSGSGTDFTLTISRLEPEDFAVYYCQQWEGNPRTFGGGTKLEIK")
9.90

Looking up A96 (antibody, human IgG1, V domains shown, human IgG1/kappa (pFuse vectors), culture supernatant) VH: QVQLVQSGAEVKKPGASVKVSCKASGFDIQDTYMHWVRQAPGQGLEWMGRIEPASGHIKYDPKFQGRATMTRDTSTSTVYMELSSLRSEDTAVYYCARSGGLPDWWGQGTTVTVSS VL: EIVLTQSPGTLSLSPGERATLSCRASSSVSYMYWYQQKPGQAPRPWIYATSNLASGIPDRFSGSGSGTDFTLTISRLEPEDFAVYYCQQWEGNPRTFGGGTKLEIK , I found its pKd recorded as 10.02
